# Assay Details: soluble on expression in E. coli; label from the status in PepcDB or PDB records
Reported Property: soluble on expression in E. coli

Worked examples follow.
MTPFTVDILIPIWNRPVETRNCLVTLMETTPSARLILIDNGSDRETERLLEEFSEILGERALFLKTSANQGFVRAVNRSLAQVEAPYAVVMQNTTLVTRGWLEPMVELADSRPDAGIIVPRLELEDGQGRRPKAAPPAGPVTEVSHGSFAASMVRRELVERQGGFDEELDGGPWCLRDYSRRAFRNGFLTLALDGAVVTYAEEVPLGSVARREETVRRSAETCRARWGREDAFCIYFPKDAEPEAVHGKLDVILRGARMGQCFTLILHPGLHKSLMETGHAPLHSNIALAPLPRFFATGEIRKIIGKLASVRGDTVTVAGVDGLSIPGVEGARSFSWLADEIRRRHESLYRPESP	soluble
MFEPMMEMSDDAVIKVVGVGGGGGNAVEHMVRESIEGVEFMSINTDAQALRKTSVGTVIQIGGNITKGLGAGANPQVGRDAALEDKERIKEFLTGADMVFIAAGMGGGTGTGAAPVIAEVAKELGILTVAVVTKPFSFEGKKRLAFAEQGIEELSKHVDSLITIPNEKLLKVLGRGITLLEAFASANNVLKNAVQGIAELITRPGMINVDFADVRTVMSEMGHAMMGSGVARGEDRAEEAAEMAISSPLLEDIDLAGARGVLVNITAGLDMRLDEFETVGNTVKAFASDNATVVIGTSLDPDMADEIRVTVVATGIGNEKKPDITLVAGGKSKVAPVSAPVTSRVEEKAAQPLHERVEVKTQPAAAPSHSSASQSVAPKPEKESGYLDIPAFLRRQAD	not soluble
MAHHHHHHMGKKRFYAVAVGRQTGVFSTWEECQKQVSGFSGARFKSFLTLQEAQAYASGVQDVEPGSVGTSLVADSHTPVLVGVKRALSLDVTLDAVEVDAADDGNEVDDESKQQVLSPEWVEARKREAVVVYVDGACRNNGSRSRERRPRAGFGGFYGDGDSRNFKFPLPAHEPQTNQRAELSALIHVLRVALDSHPCYNLCVYSDSKYTVMGVNSYLHRWERNGFKTAGGGDVANIDLWSQLTKLRNRHLSRCAERFTMEFRFKASLAAIAARAVALQLKHVPGHAGVYGNEMADRLAVEACESPFG	not soluble
MGSDKIHHHHHHMTAFNPIAIIPHYNHSATVGSVAEQLNQLGLPVLIVDDGSSLEHKAVIEQFPQNEQLSILFCEINGGKGAAFKAGLKQTQKLGFSHAIQVDADGQHNIIDVKKMLEQAEKSPNAIVCGKPIYGKDAPKSRLYGRKITDFWNAINTLSFDIKDGMCGFRIYPIAQIMPILAQEQIGGGMDFDTEILIHSYWQKIPLIWVDTPVKYEKDGISHFRGWADNWLISKMHARLFFRMLKRLFTGKIR	not soluble

Query sequence follows.
Name the reported soluble on expression in E. coli value associated with the sequence `GSHMSQVEKDNTQALIPTMNMARQLSEASAWELFAAQNLTSADNEKMWQAQGRMLTAQSLKINALLQALREQGFDTTAIEQQEQEISRSLRQQGELVGQRLQLRQQQQQLSQQIVAAADEIARLAQGQANNATTSAGATQAGIYDLIEQDQRQAAESALDRLIDIDLEYVNQMNELRLSALRVQQMVMNLGLEQIQKNAPTLEKQLNNAVKILQRRQIRIEDPGVRAQVATTLTTVSQYSDLLALYQQDSEISNHLQTLAQNNIAQFAQFSSEVSQLVDTIELRNQHGLA` soluble
